Hello, the source for this data is ChEMBL document CHEMBL5352388, in case you need it.

assay: Half life in Sprague-Dawley rat at 10 mg/kg,po by LC-MS/MS analysis; assay type: ADME, organism-based; conditions: in vivo
MEASUREMENT KIND: half-life (h)

Cc1ccc(-c2cc3c(cc2-c2ccc(C#N)cc2)c(C(=O)N2CCC(N)CC2)cn3S(=O)(=O)c2ccc(F)cc2)cc1	6.27

* * *

assay: AUC (0-t) in Sprague-Dawley rat at 3 mg/kg,iv by LC-MS/MS analysis; format: ADME, organism-based; set-up: dose 3 mg/kg, route iv; details: in vivo
MEASUREMENT KIND: AUC(0-t)

Cc1ccc(-c2cc3c(cc2-c2ccc(C#N)cc2)c(C(=O)N2CCC(N)CC2)cn3S(=O)(=O)c2ccc(F)cc2)cc1	1320 ng·h/mL
